Provide the recorded Bliss excess for the entries that follow.
# Tested on: SNU-423 (Hepatocellular Carcinoma);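 note: after 72 h of two-drug dosing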
# protocol_summary: Bliss excess, mean over the matrix (fraction); higher = more synergy
Numbers only.

* Cc1c2c(nn1C)CSCc1cc(n(C)n1)CSc1cc(c3ccccc3c1)OCCCc1c(C(=O)O)n(C)c3c-2c(Cl)ccc13 [AZD5991] + Cn1cnc2c(F)c(Nc3ccc(Br)cc3Cl)c(C(=O)NOCCO)cc21 [Selumetinib] (first compound max 1 µM, 7x7, partner max 3 µM) | -0.0599

We now examine a further compound.
For the compound shown here, NC1(C(=O)N[C@@H](CCO)c2ccc(Cl)cc2)CCN(c2ncnc3[nH]ccc23)CC1 [Capivasertib] + CC(C)n1c(=O)n(C)c2cnc3cc(F)c(-c4ccc(OCCCN5CCCCC5)nc4)cc3c21 [AZD1390] (first compound max 10 µM, 7x7, partner max 0.3 µM) , give the reported Bliss excess.
-0.0583

###

# Test system: NMC-G1 (Low Grade Glioma)
# protocol_summary: combination Emax (second highest fraction inhibited in the dose matrix, 72 h); higher = more inhibition; extreme values may be limits of the assay
readout_label: combination Emax
Answers are plain numbers.

- CCc1c2c(nc3ccc(O)cc13)-c1cc3c(c(=O)n1C2)COC(=O)[C@]3(O)CC [SN-38] + O=C(c1cc(Cc2n[nH]c(=O)c3ccccc23)ccc1F)N1CCN(C(=O)C2CC2)CC1 [Olaparib] (first compound max 0.3 µM, 7x7, partner max 10 µM): 0.246
- CC1(C)CCC(CN2CCN(c3ccc(C(=O)NS(=O)(=O)c4ccc(NCC5CCOCC5)c([N+](=O)[O-])c4)c(Oc4cnc5[nH]ccc5c4)c3)CC2)=C(c2ccc(Cl)cc2)C1 [Venetoclax] + C=CCn1c(=O)c2cnc(Nc3ccc(N4CCN(C)CC4)cc3)nc2n1-c1cccc(C(C)(C)O)n1 [AZD1775] (first compound max 1 µM, partner max 1 µM): 0.394

We now examine a further compound.
For the compound shown here, CC1(C)CCC(CN2CCN(c3ccc(C(=O)NS(=O)(=O)c4ccc(NCC5CCOCC5)c([N+](=O)[O-])c4)c(Oc4cnc5[nH]ccc5c4)c3)CC2)=C(c2ccc(Cl)cc2)C1 [Venetoclax] + C[C@@H]1COCCN1C2=NC(=NC(=C2)C3(CC3)[S@](=N)(=O)C)C4=C5C=CNC5=NC=C4 [AZD6738] (first compound max 1 µM, 7x7, partner max 10 µM) , give the reported combination Emax.
0.461

###

# Tested on: ZR-75-30 (Breast Carcinoma)
# protocol_summary: combination Emax (second highest fraction inhibited in the dose matrix, 72 h); higher = more inhibition; extreme values may be limits of the assay
Provide the recorded combination Emax for the entries that follow.
Give bare numbers.

Examples with answers:
* Cc1cc2ncnn2cc1Nc1ncc2c(n1)n(C1CCOCC1)c(=O)n2C [AZD7648] + O=C(c1cc(Cc2n[nH]c(=O)c3ccccc23)ccc1F)N1CCN(C(=O)C2CC2)CC1 [Olaparib] (first compound max 10 µM, 7x7, partner max 10 µM) | 0.12
* CCc1c2c(nc3ccc(O)cc13)-c1cc3c(c(=O)n1C2)COC(=O)[C@]3(O)CC [SN-38] + CN(C)CCCOc1ccc(-c2ccc3ncc4c(c3c2)n(C2CCOCC2)c(=O)n4C)cn1 [AZD0156] (first compound max 0.3 µM, 7x7, partner max 1 µM) | 0.0683
* Cc1nc(Nc2ncc(C(=O)Nc3c(C)cccc3Cl)s2)cc(N2CCN(CCO)CC2)n1 [Dasatinib] + CC(=O)Nc1cccc(-n2c(=O)n(C3CC3)c(=O)c3c(Nc4ccc(I)cc4F)n(C)c(=O)c(C)c32)c1 [Trametinib] (first compound max 2 µM, 7x7, partner max 1 µM) | 0.0302

We now examine a further compound.
Test system ZR-75-30 (Breast Carcinoma); read-out combination Emax; what value for O=C(c1cc(Cc2n[nH]c(=O)c3ccccc23)ccc1F)N1CCN(C(=O)C2CC2)CC1 [Olaparib] + COc1nnc2ccc(N3CCC(c4ccc(OCCN5CCN(C)C(=O)[C@H]5C)cc4)CC3)nn12 [AZD5153] (first compound max 10 µM, 7x7, partner max 1 µM) ?
0.207

The measured values listed here are drawn from the supplement of paper PMC11061612.
